# EXPERIMENTAL_DETAILS: Part A single-ascending-dose plasma PK in healthy subjects
# Assay type: in vivo, human
# REPORTED_CONDITIONS: human, plasma, iv, 4 g, part A cohort 6, single 4.0 g, 3-h i.v. infusion
ASSAY_READOUT: Cmax
Your answer should be a number followed by the unit of measure.

Query :: Would you kindly share the measured Cmax for CC1=C[C@@H]2CN(C(=O)N2OS(=O)(=O)O)[C@@H]1C(N)=O [DUR, Durlobactam] ?
Result :: 96.2 µg/mL

###

Assignment: determine reported AUC(0-t) for the given compounds.
# EXPERIMENTAL_DETAILS: clinical
# REPORTED_CONDITIONS: human, in vivo, AUC0–24
# Procedure: The blank control matrix was made up of human plasma (BioreclamationIVT) diluted 1:1 with SigmaFast (reconstituted protease inhibitor cocktail tablet [product S8820; Sigma-Aldrich, St. Louis, MO] in 10 ml of water) for preparation of calibration standards and QC samples. […] A 100-μl aliquot of the supernatant was transferred to 96-well plates. […] AUC was calculated using the log-linear trapezoidal rule. […]
Quick reminder: number only, in ng·h/mL, skip the unit.

Query :: So what does the record say about AUC(0-t) for CC1=C[C@@H]2CN(C(=O)N2OS(=O)(=O)O)[C@@H]1C(N)=O ?
Result :: 106000

Query :: For C[C@@H](O)[C@H]1C(=O)N2C(C(=O)O)=C(SCCN=CN)C[C@H]12 [IMI, imipenem, reference compound] then?
Result :: 43700

###

# EXPERIMENTAL_DETAILS: Part B multiple-ascending-dose plasma PK in healthy subjects
# Assay type: in vivo, human
# REPORTED_CONDITIONS: human, plasma, iv; part B cohort 11 (5 subjects), 1.0 g q6h 3-h i.v. infusion, day 8
ASSAY_READOUT: half-life
The reply must contain the numeric value and, after it, the unit.

Query :: I am curious: what half-life value has been reported for CC1=C[C@@H]2CN(C(=O)N2OS(=O)(=O)O)[C@@H]1C(N)=O ?
Result :: 3.5 h

###

# EXPERIMENTAL_DETAILS: Part B multiple-ascending-dose plasma PK in healthy subjects
# Type: in vivo, human
# REPORTED_CONDITIONS: human, plasma, iv, 0.5 g, part B cohort 10 (4 subjects), 0.5 g q6h 3-h i.v. infusion, day 8, median
ASSAY_READOUT: Tmax (h)
// note: answer is a bare numeric in h

Query :: Looking for the measured Tmax of CC1=C[C@@H]2CN(C(=O)N2OS(=O)(=O)O)[C@@H]1C(N)=O , can you help?
Result :: 3

###

# EXPERIMENTAL_DETAILS: Urine PK (urinary excretion, renal clearance) in healthy subjects
# REPORTED_CONDITIONS: human, urine, intravenous, 8 g, CLr, mean, part A cohort 7, single 8 g, n=5
ASSAY_READOUT: CL renal (mL/min)
Return type: number; implicit unit mL/min.

Query :: Returns the measured CL renal for the input compound. Input: CC1=C[C@@H]2CN(C(=O)N2OS(=O)(=O)O)[C@@H]1C(N)=O
Result :: 109

###

# EXPERIMENTAL_DETAILS: Part C single-dose drug-drug interaction plasma PK in healthy subjects
# REPORTED_CONDITIONS: human, in vivo, AUC0–24, part C cohort 14, DUR 1 g + IMI-CIL 0.5 g, day 5
ASSAY_READOUT: AUC(0-t) (ng·h/mL)
Output spec: scalar in ng·h/mL, unitless text.

Query :: Any idea what its AUC(0-t) is? The compound is CC1(C)C[C@@H]1C(=O)N/C(=C\CCCCSC[C@H](N)C(=O)O)C(=O)O [CIL, cilastatin]
Result :: 47100

Reference source for all entries: paper PMC7318034
